# study-system: Grb2 SH2 (UniProt P62993)
# Sequence (P62993 whole entry, looked up): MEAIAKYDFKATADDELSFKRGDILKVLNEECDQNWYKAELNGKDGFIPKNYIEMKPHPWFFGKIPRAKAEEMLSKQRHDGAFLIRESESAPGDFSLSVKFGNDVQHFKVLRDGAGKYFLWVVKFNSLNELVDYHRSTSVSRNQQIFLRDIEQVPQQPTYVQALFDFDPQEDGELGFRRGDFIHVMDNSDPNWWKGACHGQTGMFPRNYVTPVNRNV
# protocol-description: SH2 binding enrichment of the phosphorylated peptide, bacterial display (enrichment ratio); higher = better substrate or ligand; peptides without Tyr show the background
Kindly state SH2 binding enrichment for each of the entries shown.

| seq-text | study-system | SH2 binding enrichment |
| --- | --- | --- |
| KELSNYKHLTL [SLIT2_Y776] | Grb2 SH2 (UniProt P62993) | 0.721 |
| ETWHNYHKFDS [MATR3_Y243_S240W] | Grb2 SH2 (UniProt P62993) | 0.865 |
| VIKDKYPKARF [APTX_Y209_YF] | Grb2 SH2 (UniProt P62993) | 1.15 |
| PELINYHQHNF [BTK_Y361_S366F] | Grb2 SH2 (UniProt P62993) | 1.03 |
| CFTGKYTLPPG [HSPB1_Y142_R140G] | Grb2 SH2 (UniProt P62993) | 0.592 |
| QKLPLYILENN [VPS13B_Y2774_S2773L] | Grb2 SH2 (UniProt P62993) | 0.746 |
| NPQKSYFICLF [WAS_Y83_R86C_YF] | Grb2 SH2 (UniProt P62993) | 0.988 |
| CTTIHYNFMCN [TP53_Y234_Y236F] | Grb2 SH2 (UniProt P62993) | 1.8 |
| AAVPAYDKIRV [STXBP2_Y401] | Grb2 SH2 (UniProt P62993) | 0.803 |
| NPQKSYFIRLF [WAS_Y83_YF] | Grb2 SH2 (UniProt P62993) | 1.2 |

Give one value of SH2 binding enrichment per listed sequence.
1. ALKKPYGVLFK [RPF2_Y59_YF]
2. LVRAFYCERRR [CARD11_Y970]
3. NPQKSYFIHLY [WAS_Y83_R86H]
4. KMTGRYEMYAR [UPB1_Y362]

Output:
1. 2.15
2. 0.383
3. 1.29
4. 1.13

* * *

# study-system: EPHB1 (UniProt P54762)
# Sequence (P54762 whole entry, looked up): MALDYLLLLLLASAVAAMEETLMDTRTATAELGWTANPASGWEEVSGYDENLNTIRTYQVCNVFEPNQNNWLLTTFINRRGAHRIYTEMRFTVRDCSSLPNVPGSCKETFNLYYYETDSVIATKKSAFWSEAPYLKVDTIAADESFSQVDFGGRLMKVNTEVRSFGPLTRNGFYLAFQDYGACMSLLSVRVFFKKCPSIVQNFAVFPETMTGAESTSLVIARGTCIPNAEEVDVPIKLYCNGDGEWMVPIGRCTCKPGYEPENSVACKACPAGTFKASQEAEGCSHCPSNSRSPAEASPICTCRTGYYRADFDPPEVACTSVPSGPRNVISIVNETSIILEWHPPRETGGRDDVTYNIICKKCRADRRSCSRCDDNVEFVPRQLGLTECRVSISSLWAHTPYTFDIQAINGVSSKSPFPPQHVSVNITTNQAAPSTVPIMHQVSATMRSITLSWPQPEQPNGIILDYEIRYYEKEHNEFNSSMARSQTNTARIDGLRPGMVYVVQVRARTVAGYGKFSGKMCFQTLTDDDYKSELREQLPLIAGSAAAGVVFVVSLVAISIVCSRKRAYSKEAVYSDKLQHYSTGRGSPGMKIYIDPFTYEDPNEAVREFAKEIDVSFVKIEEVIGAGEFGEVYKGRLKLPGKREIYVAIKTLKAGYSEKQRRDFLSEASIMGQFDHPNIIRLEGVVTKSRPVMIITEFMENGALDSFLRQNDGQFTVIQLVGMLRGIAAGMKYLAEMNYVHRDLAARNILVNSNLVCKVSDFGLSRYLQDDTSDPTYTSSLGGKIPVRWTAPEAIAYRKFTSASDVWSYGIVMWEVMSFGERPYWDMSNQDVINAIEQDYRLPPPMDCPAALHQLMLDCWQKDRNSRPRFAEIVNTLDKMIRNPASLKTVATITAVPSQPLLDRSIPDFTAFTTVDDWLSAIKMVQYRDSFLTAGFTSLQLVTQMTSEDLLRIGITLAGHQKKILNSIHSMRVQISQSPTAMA
# protocol-description: phosphorylation enrichment, bacterial display (enrichment ratio); higher = better substrate or ligand; peptides without Tyr show the background
Decide using phosphorylation enrichment: a value greater than or equal to 0.5 is Fulfilled, a smaller one is Not fulfilled.

Record excerpt, results attached:
| seq-text | assigned-label |
| --- | --- |
| NELTYYCCKKD [CD59_Y87] | Fulfilled |
| FADIAYNYHHG [PAH_Y166_R169H] | Not fulfilled |
| AIDVGYRLIDC [AKR1B1_Y40_H42L] | Not fulfilled |
| RPSELYYSKIG [SMG1_Y2253] | Fulfilled |
| FTGVEYSSCDT [EPHA3_Y937] | Fulfilled |

Now let's try a different one.
Input: Is the recorded value of phosphorylation enrichment equal to or greater than 0.5 for this sequence? RLLRGYDQSAF [HLA-C_Y137_YF]
Output: Not fulfilled

* * *

# Tested on: c-Src
# protocol-description: phosphorylation enrichment, bacterial display (enrichment ratio); higher = better substrate or ligand; peptides without Tyr show the background
Kindly state phosphorylation enrichment for each of the entries shown.

Recorded phosphorylation enrichment, per entry:
| seq-text | study-system | phosphorylation enrichment |
| --- | --- | --- |
| SHPSSYTTHPQ [NIPBL_Y195] | c-Src | 0.478 |
| HAVVDYMRRQK [ATM_Y1915_L1910H] | c-Src | 0.539 |
| VVAHHYSFAPD [TNS3_Y601_Q600H] | c-Src | 0.643 |

Give one value of phosphorylation enrichment per listed sequence.
1. ETKAFYPEEIS [HSPA1A_Y115]
2. QADVTYVNTQL [MERTK_Y872_I871T]
3. PELINYQQHNS [BTK_Y361_H362Q]
4. VTQEPYELYCE [CBL_Y368_Q367P]

Output:
0.511
0.682
0.969
1.24

* * *

# study-system: FGFR3 (UniProt P22607)
# Sequence (P22607 whole entry, looked up): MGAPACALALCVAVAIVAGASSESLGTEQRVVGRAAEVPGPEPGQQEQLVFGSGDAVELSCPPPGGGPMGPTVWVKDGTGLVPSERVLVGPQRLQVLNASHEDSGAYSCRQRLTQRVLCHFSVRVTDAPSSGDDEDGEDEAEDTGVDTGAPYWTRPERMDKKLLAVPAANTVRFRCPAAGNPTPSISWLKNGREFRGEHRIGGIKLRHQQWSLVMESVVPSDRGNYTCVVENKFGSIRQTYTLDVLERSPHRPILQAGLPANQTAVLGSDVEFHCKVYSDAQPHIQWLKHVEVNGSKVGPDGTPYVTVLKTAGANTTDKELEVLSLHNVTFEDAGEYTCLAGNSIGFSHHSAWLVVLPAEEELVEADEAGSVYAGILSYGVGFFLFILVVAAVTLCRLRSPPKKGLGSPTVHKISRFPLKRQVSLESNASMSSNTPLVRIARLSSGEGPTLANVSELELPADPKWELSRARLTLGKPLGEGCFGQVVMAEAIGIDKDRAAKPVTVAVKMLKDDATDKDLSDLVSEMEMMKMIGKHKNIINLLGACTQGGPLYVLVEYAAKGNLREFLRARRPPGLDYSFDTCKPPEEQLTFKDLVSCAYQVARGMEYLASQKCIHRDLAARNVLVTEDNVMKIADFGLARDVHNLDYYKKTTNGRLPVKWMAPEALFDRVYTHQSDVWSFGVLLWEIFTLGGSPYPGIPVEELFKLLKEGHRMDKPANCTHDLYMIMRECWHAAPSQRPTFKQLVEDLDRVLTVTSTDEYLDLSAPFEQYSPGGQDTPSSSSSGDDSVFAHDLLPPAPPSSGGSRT
# protocol-description: phosphorylation enrichment, bacterial display (enrichment ratio); higher = better substrate or ligand; peptides without Tyr show the background
Decide using phosphorylation enrichment: a value greater than or equal to 0.6 is true, a smaller one is false.

Record excerpt, results attached:
| seq-text | assigned-label |
| --- | --- |
| RSDEDYLCREE [POR_Y573_Y575C] | true |
| RLAKTYETTLK [ALB_Y377_E382K] | false |
| NYDLDYDSVQP [MYC_Y16] | true |
| GSCQEYTGAPY [NAXD_Y85_G81S] | true |
| DLDATYRPMYS [JUP_Y701_M697L] | false |

Input: Is the recorded value of phosphorylation enrichment equal to or greater than 0.6 for this sequence? GITVAYTIPKK [UBA5_Y372]
Output: false

Input: Is the recorded value of phosphorylation enrichment equal to or greater than 0.6 for this sequence? VEDDMYRKTCT [XPA_Y257_L252V]
Output: true

Input: Is the recorded value of phosphorylation enrichment equal to or greater than 0.6 for this sequence? ANNEFYFQVCA
Output: true

Input: Is the recorded value of phosphorylation enrichment equal to or greater than 0.6 for this sequence? HSDYQYGQRSQ [PKP2_Y168_S169G]
Output: false

Input: Is the recorded value of phosphorylation enrichment equal to or greater than 0.6 for this sequence? RSACTYLASHL [PLK3_Y615]
Output: true

* * *

Kindly state phosphorylation enrichment for each of the entries shown.
# study-system: FGFR3 (UniProt P22607)
# protocol-description: phosphorylation enrichment, bacterial display (enrichment ratio); higher = better substrate or ligand; peptides without Tyr show the background
One number for each entry.

Recorded phosphorylation enrichment, per entry:
| seq-text | phosphorylation enrichment |
| --- | --- |
| NDQANYLLNTD [ADA_Y290_S291L] | 0.601 |
| PNAFIYVVQLP [L1CAM_Y420_A415P_YF] | 1.31 |
| KHMADYPDCKY [SOX11_Y113_Y116C] | 1.31 |
| KASRKYFAMKI [AKT3_Y173_G171R_YF] | 0.363 |
| ISSLDYISKTK [VAV3_Y294] | 0.513 |
| FGLTLYPNSRE [MEP1A_Y472_V469L] | 0.698 |
| IHHIDYFKKTT [FGFR1_Y653_YF] | 0.642 |
| ELELLYPDRNS [NYX_Y284_L285P] | 0.759 |

Give one value of phosphorylation enrichment per listed sequence.
1. KELSNYKHLTL [SLIT2_Y776]
2. GKAFIYASHIV [ZNF573_Y229]
3. RGKDNYETSQL [SPP1_Y225_S224N]
4. VDSAHYQLLET [DTX3L_Y385_K386Q]

Output:
0.43
0.602
0.634
0.952

* * *

# System: c-Abl (mouse)
# protocol-description: phosphorylation enrichment, bacterial display (enrichment ratio); higher = better substrate or ligand; peptides without Tyr show the background
Decide using phosphorylation enrichment: a value greater than or equal to 0.7 is condition met, a smaller one is condition not met.

Input: Is the recorded value of phosphorylation enrichment equal to or greater than 0.7 for this sequence? VSLEAYCKHKF [RXRA_Y403_A398V_YF]
Output: condition met

* * *

# study-system: Jak2 (UniProt O60674)
# Sequence (O60674 whole entry, looked up): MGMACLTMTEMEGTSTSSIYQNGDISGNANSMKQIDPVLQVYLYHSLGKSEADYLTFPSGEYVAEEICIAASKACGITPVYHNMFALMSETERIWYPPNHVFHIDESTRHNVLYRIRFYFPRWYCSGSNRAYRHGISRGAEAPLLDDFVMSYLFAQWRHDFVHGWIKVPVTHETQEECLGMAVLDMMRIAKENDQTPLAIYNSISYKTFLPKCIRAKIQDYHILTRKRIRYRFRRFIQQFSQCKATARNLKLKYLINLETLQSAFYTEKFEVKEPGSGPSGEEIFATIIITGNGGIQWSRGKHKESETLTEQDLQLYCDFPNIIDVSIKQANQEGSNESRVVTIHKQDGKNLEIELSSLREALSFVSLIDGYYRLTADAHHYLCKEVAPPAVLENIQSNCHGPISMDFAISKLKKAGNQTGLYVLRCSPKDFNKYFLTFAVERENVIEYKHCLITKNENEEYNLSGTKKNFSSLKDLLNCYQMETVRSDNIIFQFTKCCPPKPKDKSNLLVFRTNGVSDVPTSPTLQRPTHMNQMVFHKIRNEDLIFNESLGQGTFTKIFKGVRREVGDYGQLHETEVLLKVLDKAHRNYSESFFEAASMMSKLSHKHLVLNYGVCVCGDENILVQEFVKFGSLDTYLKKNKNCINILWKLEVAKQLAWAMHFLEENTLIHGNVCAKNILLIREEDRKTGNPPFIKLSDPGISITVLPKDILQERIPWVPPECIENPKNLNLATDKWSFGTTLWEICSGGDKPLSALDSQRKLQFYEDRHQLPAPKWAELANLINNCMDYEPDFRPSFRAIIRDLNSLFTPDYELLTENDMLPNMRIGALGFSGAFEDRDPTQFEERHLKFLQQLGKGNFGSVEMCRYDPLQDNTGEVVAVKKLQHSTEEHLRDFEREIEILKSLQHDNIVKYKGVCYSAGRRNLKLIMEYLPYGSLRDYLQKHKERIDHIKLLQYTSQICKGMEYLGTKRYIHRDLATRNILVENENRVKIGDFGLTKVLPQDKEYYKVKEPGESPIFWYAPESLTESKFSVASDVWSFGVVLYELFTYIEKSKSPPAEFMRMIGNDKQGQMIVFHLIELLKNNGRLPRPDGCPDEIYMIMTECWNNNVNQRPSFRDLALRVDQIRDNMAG
# protocol-description: phosphorylation enrichment, bacterial display (enrichment ratio); higher = better substrate or ligand; peptides without Tyr show the background
Kindly state phosphorylation enrichment for each of the entries shown.
Give bare numbers.

Give one value of phosphorylation enrichment per listed sequence.
1. FPKARYHWLVL [APTX_Y214_YF]
2. LDPDSYNVFEN [FOXC1_Y159_M161V]
3. VVQGIYGFHHH [UFSP2_Y285_Y290H_YF]
4. PIPIKYKAMKK [MYD88_Y257_L252P]
5. VDSAHYQLLET [DTX3L_Y385_K386Q]

Output:
0.772
2.3
0.538
0.665
0.891

Give one value of phosphorylation enrichment per listed sequence.
1. AQRKLYRNVML [ZNF569_Y33]
2. DENWFYMRAAS [RPS19_Y54_T55M]

Output:
1: 0.629; 2: 1.25

* * *

# study-system: FGFR1 (UniProt P11362)
# Sequence (P11362 whole entry, looked up): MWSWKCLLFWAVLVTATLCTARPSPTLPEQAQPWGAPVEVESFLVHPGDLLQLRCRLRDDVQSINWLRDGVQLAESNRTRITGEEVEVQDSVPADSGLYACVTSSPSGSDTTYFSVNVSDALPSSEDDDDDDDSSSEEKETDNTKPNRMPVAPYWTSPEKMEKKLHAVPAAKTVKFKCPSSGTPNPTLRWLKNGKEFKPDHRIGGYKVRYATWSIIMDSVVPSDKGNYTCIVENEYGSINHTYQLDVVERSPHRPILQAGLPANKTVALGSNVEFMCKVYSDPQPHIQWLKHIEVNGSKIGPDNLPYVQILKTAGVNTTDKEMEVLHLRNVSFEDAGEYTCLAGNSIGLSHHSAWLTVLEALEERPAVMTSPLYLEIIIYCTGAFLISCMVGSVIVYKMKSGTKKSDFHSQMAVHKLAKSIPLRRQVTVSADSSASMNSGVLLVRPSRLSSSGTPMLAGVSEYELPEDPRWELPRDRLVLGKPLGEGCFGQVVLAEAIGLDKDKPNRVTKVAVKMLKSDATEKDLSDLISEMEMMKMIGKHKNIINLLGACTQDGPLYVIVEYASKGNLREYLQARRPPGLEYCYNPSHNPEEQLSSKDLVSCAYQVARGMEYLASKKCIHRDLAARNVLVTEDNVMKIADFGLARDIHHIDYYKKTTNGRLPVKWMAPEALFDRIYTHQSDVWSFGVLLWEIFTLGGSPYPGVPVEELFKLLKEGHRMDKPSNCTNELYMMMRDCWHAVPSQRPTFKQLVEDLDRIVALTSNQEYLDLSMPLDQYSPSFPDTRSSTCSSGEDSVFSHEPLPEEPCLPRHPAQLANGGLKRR
# protocol-description: phosphorylation enrichment, bacterial display (enrichment ratio); higher = better substrate or ligand; peptides without Tyr show the background
Kindly state phosphorylation enrichment for each of the entries shown.
Answers are plain numbers.

| seq-text | study-system | measured |
| --- | --- | --- |
| ALAHKCHGGGG [HBB_Y146_Y146C] | FGFR1 (UniProt P11362) | 0.428 |

Give one value of phosphorylation enrichment per listed sequence.
1. LAGRFYALRSM [CKB_Y174_K177R_YF]
2. IHETTYKSIMK [ACTA1_Y281_N282K]
3. SVTCTYSPVLN [TP53_Y126_A129V]

Output:
0.598
0.373
0.558

Give one value of phosphorylation enrichment per listed sequence.
1. VTGWGYRKLRD [F11_Y521]
2. PVKTPYSLKRW [BMPR2_Y979_R974P]
3. KSPDSYQKILF [ATM_Y1415_L1420F]
4. VQQVIYATGAL [MYH7_Y422]
5. PIFLFYLMDLS [ITGB2_Y131_D128Y_YF]
6. EHLNRYISDTF [TTLL10_Y446]
7. PLQKTYNFNML [SLC4A1_Y553_V557M_YF]
8. MNKNAYHNVTA [ST3GAL6_Y306]

Output:
1: 0.392; 2: 0.653; 3: 0.509; 4: 0.488; 5: 0.702; 6: 0.428; 7: 0.318; 8: 0.499

Give one value of phosphorylation enrichment per listed sequence.
1. CCNHPYLINGA [CHD7_Y1256]
2. NYDLDYDSVQP [MYC_Y16]
3. QDDYSYPSRQM [LDLR_Y847_G844D]
4. PEADKYRLPFA [FGG_Y300_T303P_YF]

Output:
1. 0.443
2. 0.74
3. 2.04
4. 0.544

Give one value of phosphorylation enrichment per listed sequence.
1. AFSLKYDQQTQ [SYTL4_Y366_E367D]
2. LERYIYNREEY [HLA-DPB1_Y59_F64Y]
3. MMVGAYSSLEG [ECPAS_Y470_T472S]

Output:
1. 0.539
2. 0.726
3. 0.514
